All figures here come from the supplement of paper PMC9170038.

Tested on: MS2 coat protein
Test: apparent KD of MS2 coat protein; designed switch direction (-1 OFF switch, 1 ON switch): 1; higher = weaker reporter binding
Conditions: Eterna round: R95; input ligand: FMN 200 uM
Decision: apparent KD of MS2 coat protein >= 20 nM yields YES, all other cases yield NO.

AUAAAACAUGAGGAUCACCCAUGUCAACAAAGUCGAGGAUAUUGGCAAAUAAAAUAAGAACCAGAAGGCGAAUAAU [salish99_ss1_r3_050] (puzzle: Same State 1)
NO

Please indicate if the recorded apparent KD of MS2 coat protein for AAUAUACAUGAGGAUCACCCAUGUUAGUAAAUGACAGGAUAUCGAAUAAAUAAAUAAUAACGAGAAGGGUCUAAUA [JMF's solution 3] (puzzle: Same State 1) meets or exceeds 20 nM.
NO

Please indicate if the recorded apparent KD of MS2 coat protein for AACAAUCUAUCUCAGGAUAUCAUGUCAAAGACAUGAGGAUCACCCAUGUACCAGGAAACUGGUUAUGAGAAGGGAGAUAGAUUGG [Mat - Same State 2 - Mod - D28] (puzzle: Same State 2) meets or exceeds 20 nM.
YES

Please indicate if the recorded apparent KD of MS2 coat protein for AGUCCAGCCUGAGCUGGACAAAAGCAUGUACAUGAGGAUCACCCAUGUUCAUGUACAAGCUUUUUGCUCGUCUUAGG [salish99_208a_r3_062] (puzzle: Sensor for hsa-mir-208a) meets or exceeds 20 nM.
YES

###

Test system: MS2 coat protein
Test: apparent KD of MS2 coat protein; designed switch direction (-1 OFF switch, 1 ON switch): -1; higher = weaker reporter binding
Settings: Eterna round: R95; input ligand: microRNA oligo, concentration not stated
Listed here: items and their measured apparent KD of MS2 coat protein.
Please provide the amount together with its unit, number first.

Reference set (2 entries):
AAUAAAGGAGGAUAUACAUGAGGAUCACCCAUGUGAAUAAAAUAAAUAAAAUGAUAAAGUAGAAGGCCUAAUAA [JMF's solution 3] (puzzle: Exclusion 3)
33.3 nM
UUAUUUUUUGAGGAUAUGCGACGUUUUUUCGUCGUAGAAGGCGAUACAUGAGGAUCACCCAUGUUUAUGGGCAU [LRO-Ex6-13] (puzzle: Exclusion 6)
73.8 nM

Fill in the blank: the reported apparent KD of MS2 coat protein of CUUUUGUGAGGAUAUCAGUAGUAAAUAAAUAAAAUUACUAUUGAGAAGGCACAUGAGGAUCACCCAUGUUCCUC [salish99_ex3_r3_088] (puzzle: Exclusion 4) is ____.
33.9 nM

###

System: MS2 coat protein
Experiment: apparent KD of MS2 coat protein; designed switch direction (-1 OFF switch, 1 ON switch): -1; higher = weaker reporter binding
Details: input ligand: microRNA oligo, concentration not stated
recorded.metric: apparent KD of MS2 coat protein (nM)
Answer format: numeric, nM implied, no suffix.

Fill in the blank: the reported apparent KD of MS2 coat protein of UACAUGAGGAUCACCCAUGUUUUGUCGUGUAUGGUAUUUAUCUAGGAUAUCAAGUUAUUUAAUUAUGAGAAGGAGAAUAUUAAU [JMF's solution 34] (Eterna round: R96, puzzle: Exclusion NG 3) is ____.
26.6

Fill in the blank: the reported apparent KD of MS2 coat protein of AGGUGCUUCUGGAGACAUGAGGAUCACCCAUGUUGAGUUAGCGAGGAUAUCGGUAACCAUUGUUAUGAGAAGGCGCAAACCAGA [Ex NG3 #40] (Eterna round: R96, puzzle: Exclusion NG 3) is ____.
10.5

Fill in the blank: the reported apparent KD of MS2 coat protein of UCGCUCCGUGUAGGAUAUCGCCGUACUAUGCGGCGAGAAGGACAUGAGGAUCACCCAUGUAUGUUAUUAUCACGCGUGGCGCAA [Design 61] (Eterna round: R96, puzzle: Exclusion NG 1) is ____.
13.4
